src = ChEMBL document CHEMBL4376834

experimental target: Hepatocyte growth factor receptor (Homo sapiens, UniProt P08581, Y1230D)
Sequence (P08581 25-1390 Y1230D limits assumed): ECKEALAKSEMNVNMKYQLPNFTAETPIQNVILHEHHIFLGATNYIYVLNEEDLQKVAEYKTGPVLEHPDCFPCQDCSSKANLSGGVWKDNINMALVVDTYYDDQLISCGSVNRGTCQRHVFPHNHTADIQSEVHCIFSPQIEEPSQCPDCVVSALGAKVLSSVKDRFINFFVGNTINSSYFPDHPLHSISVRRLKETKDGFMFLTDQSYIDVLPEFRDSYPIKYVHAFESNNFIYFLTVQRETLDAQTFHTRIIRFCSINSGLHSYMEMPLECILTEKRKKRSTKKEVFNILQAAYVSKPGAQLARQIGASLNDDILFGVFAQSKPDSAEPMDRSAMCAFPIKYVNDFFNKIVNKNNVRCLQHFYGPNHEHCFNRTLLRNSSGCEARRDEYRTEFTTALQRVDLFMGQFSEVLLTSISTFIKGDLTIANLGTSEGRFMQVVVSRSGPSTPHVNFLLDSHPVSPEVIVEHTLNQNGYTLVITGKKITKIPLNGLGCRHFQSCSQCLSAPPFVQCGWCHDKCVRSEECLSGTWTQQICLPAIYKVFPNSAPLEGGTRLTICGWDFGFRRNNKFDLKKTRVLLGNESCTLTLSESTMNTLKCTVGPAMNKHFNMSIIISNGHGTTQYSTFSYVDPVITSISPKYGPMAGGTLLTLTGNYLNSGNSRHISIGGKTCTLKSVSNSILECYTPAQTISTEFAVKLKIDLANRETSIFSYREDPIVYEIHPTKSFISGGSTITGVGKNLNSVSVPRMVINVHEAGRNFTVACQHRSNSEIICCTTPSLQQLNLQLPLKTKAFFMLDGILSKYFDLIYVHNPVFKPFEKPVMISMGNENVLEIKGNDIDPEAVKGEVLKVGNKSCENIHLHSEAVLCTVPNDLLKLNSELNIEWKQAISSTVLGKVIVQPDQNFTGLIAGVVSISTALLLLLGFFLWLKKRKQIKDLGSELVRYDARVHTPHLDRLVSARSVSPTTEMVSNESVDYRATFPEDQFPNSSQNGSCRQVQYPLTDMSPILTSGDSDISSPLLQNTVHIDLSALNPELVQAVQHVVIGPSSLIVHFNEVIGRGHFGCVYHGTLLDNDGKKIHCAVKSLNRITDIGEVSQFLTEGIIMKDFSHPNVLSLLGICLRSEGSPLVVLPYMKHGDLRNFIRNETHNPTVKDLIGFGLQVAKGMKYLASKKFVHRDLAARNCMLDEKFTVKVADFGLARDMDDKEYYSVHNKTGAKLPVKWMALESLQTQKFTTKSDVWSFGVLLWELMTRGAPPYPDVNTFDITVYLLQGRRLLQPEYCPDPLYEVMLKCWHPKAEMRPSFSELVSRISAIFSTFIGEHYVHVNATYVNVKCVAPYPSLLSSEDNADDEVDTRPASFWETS
run description: Inhibition of recombinant human MET A1209G/V1290L/Y1248D triple mutant (974 to end residues) using KKKGQEEEYVFIE as substrate incubated for 40 mins in presence of [gamma-33ATP by radiometric scintillation counting analysis
observed property: IC50

Any idea what its IC50 is? The compound is CN(C)c1ccc(C(=O)Nc2cccc(NC(=O)COc3ccc4c(=O)ccoc4c3)c2)cc1 > 10 µM

----------
experimental target: Mitogen-activated protein kinase 8 (Homo sapiens, UniProt P45983)
Sequence (P45983 whole entry): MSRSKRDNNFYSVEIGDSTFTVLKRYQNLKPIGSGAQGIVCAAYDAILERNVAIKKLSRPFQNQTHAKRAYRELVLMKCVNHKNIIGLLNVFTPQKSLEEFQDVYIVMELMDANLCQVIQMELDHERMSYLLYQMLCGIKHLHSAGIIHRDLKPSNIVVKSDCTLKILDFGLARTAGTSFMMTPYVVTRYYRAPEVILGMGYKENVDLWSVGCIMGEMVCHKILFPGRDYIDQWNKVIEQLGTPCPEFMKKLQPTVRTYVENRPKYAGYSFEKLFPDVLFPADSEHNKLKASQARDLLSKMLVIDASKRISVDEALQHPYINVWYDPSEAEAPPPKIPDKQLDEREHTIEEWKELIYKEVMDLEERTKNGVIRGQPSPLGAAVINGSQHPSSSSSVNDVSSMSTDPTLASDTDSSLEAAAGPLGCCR
run description: Inhibition of recombinant full length human JNK1alpha1 using ATF2 as substrate after 40 mins by [gamma-33ATP] by radiometric scintillation counting analysis
observed property: IC50

For the compound CN(C)c1ccc(C(=O)Nc2cccc(NC(=O)COc3ccc4c(=O)ccoc4c3)c2)cc1 , what IC50 is on record? > 10 µM

----------
experimental target: Mitogen-activated protein kinase kinase kinase 9 (Homo sapiens)
Sequence (P80192 whole entry, the tested form may be a part): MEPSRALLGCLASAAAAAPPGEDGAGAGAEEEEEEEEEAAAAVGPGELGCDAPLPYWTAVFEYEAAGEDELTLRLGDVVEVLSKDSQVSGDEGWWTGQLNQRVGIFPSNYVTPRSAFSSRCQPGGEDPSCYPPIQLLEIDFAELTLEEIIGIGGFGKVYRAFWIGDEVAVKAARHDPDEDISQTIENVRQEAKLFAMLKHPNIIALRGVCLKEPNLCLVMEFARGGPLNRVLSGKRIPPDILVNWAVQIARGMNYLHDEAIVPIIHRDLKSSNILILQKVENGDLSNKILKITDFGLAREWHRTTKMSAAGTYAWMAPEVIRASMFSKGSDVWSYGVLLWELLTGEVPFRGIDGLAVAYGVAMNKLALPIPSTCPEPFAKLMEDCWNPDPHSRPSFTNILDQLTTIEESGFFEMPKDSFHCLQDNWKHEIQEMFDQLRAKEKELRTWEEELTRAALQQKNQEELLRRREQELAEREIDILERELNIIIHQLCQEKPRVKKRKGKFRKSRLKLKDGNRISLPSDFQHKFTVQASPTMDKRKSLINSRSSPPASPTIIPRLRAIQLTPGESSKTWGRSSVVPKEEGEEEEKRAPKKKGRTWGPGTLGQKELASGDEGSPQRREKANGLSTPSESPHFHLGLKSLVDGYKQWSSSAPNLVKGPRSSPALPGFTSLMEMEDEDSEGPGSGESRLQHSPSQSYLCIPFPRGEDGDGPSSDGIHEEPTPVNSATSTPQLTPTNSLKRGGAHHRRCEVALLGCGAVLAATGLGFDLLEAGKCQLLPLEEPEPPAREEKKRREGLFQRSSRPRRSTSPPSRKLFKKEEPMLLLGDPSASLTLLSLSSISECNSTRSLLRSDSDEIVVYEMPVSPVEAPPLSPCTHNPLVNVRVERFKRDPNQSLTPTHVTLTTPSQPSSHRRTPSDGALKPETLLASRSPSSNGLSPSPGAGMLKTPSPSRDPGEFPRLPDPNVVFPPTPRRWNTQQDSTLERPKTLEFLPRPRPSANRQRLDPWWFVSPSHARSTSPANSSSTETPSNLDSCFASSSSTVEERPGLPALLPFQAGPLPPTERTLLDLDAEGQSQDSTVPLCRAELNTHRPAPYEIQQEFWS
run description: Inhibition of recombinant human MLK1 (134 to 414 residues) using casein as substrate incubated for 40 mins in presence of [gamma-33ATP by radiometric scintillation counting analysis
observed property: IC50

Please report the recorded IC50 for CN(C)c1ccc(C(=O)Nc2cccc(NC(=O)COc3ccc4c(=O)ccoc4c3)c2)cc1 . > 10 µM

----------
experimental target: Transcription initiation factor TFIID subunit 1-like (Homo sapiens)
run description: Inhibition of recombinant human TAF1L (1428 to end residues) using RRRFRPASPLRGP as substrate incubated for 120 mins in presence of [gamma33P]ATP by radiometric scintillation counting analysis
pIC50: −log10 of the molar value.
observed property: pIC50

Endpoint output: pIC50 of CN(C)c1ccc(C(=O)Nc2cccc(NC(=O)COc3ccc4c(=O)ccoc4c3)c2)cc1 . Value? < 5.00

----------
experimental target: NT-3 growth factor receptor (Homo sapiens)
Sequence (Q16288 whole entry): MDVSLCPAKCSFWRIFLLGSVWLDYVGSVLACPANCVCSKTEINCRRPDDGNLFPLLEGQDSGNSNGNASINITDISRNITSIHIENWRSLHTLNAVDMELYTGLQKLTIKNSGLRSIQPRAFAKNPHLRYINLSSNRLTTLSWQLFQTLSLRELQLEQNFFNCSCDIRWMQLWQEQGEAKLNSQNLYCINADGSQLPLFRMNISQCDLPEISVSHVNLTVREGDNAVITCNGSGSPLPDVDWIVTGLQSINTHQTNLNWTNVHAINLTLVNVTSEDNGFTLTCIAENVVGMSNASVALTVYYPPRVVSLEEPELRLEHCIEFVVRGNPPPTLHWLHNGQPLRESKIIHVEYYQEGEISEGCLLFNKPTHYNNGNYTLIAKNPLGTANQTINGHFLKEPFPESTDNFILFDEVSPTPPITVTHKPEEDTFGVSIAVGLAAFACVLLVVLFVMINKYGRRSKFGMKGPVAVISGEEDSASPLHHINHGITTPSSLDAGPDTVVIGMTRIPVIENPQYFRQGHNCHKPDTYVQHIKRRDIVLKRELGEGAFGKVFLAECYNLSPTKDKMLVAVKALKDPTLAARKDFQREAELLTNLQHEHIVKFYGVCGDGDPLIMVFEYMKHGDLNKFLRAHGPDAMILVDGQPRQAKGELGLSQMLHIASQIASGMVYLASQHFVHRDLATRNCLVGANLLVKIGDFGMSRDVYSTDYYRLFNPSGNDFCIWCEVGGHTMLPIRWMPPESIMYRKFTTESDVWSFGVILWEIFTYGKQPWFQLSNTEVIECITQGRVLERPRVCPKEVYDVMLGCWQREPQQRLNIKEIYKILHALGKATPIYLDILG
run description: Inhibition of recombinant human TRKC (510 to end residues) using GEEPLYWSFPAKK as substrate incubated for 40 mins in presence of [gamma33P]ATP by radiometric scintillation counting analysis
observed property: IC50

Would you mind telling me what IC50 value was observed for CN(C)c1ccc(C(=O)Nc2cccc(NC(=O)COc3ccc4c(=O)ccoc4c3)c2)cc1 ? > 10 µM

----------
experimental target: Eukaryotic elongation factor 2 kinase (Homo sapiens, UniProt O00418, H23R)
Sequence (O00418 2-725 H23R limits assumed): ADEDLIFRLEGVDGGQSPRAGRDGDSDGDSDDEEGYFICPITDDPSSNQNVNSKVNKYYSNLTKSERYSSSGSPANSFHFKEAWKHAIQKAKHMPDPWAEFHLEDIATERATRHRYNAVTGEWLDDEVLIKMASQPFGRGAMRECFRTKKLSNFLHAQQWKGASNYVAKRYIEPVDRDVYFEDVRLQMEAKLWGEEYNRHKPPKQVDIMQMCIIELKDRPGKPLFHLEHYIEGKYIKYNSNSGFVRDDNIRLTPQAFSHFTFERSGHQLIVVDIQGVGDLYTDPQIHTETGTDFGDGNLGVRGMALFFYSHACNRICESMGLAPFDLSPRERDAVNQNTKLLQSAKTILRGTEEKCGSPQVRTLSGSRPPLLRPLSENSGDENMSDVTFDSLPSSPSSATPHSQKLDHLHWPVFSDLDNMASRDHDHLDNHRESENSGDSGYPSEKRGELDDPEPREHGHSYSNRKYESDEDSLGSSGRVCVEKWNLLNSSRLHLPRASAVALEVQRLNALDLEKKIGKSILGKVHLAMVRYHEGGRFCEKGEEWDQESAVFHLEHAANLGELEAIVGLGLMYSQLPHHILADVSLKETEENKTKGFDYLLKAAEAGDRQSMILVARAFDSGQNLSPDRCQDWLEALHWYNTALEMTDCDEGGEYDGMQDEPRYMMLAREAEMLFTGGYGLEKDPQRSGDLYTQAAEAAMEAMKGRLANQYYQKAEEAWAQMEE
run description: Inhibition of recombinant human eEF2K H23R mutant (2 to end residues) using RKKFGESEKTKTK as substrate after 40 mins in presence of [gamma-33ATP] by radiometric scintillation counting analysis
pIC50: −log10 of the molar value.
observed property: pIC50

Param item = CN(C)c1ccc(C(=O)Nc2cccc(NC(=O)COc3ccc4c(=O)ccoc4c3)c2)cc1 ; retrieve measured pIC50. < 5.00

----------
experimental target: Interferon-induced, double-stranded RNA-activated protein kinase (Homo sapiens, UniProt P19525)
Sequence (P19525 whole entry): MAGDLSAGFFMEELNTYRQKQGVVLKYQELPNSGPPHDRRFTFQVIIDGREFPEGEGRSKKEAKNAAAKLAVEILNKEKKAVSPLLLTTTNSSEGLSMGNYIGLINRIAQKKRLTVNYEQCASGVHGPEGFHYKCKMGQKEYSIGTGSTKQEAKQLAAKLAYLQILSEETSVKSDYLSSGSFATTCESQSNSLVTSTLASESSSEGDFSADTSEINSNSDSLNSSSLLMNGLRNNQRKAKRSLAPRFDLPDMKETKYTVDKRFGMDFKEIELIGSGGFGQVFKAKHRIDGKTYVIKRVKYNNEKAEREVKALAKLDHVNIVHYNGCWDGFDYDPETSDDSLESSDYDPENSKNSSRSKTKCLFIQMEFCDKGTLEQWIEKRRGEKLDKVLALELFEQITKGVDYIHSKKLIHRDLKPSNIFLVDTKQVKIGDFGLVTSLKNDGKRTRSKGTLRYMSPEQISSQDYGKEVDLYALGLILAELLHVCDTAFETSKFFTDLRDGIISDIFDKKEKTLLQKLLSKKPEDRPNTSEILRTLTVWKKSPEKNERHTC
run description: Inhibition of recombinant human PKR (252 to end residues) using RSRSRSRSRSRSRS as substrate incubated for 40 mins in presence of [gamma33P]ATP by radiometric scintillation counting analysis
observed property: IC50

What value of measured IC50 is listed for CN(C)c1ccc(C(=O)Nc2cccc(NC(=O)COc3ccc4c(=O)ccoc4c3)c2)cc1 ? > 10 µM

----------
experimental target: Vascular endothelial growth factor receptor 2 (Homo sapiens)
run description: Inhibition of human recombinant KDR (790 to end residues) using myelin basic protein as substrate after 40 mins by [gamma-33ATP] by radiometric scintillation counting analysis
pIC50: −log10 of the molar value.
observed property: pIC50

May I ask what pIC50 has been recorded for CN(C)c1ccc(C(=O)Nc2cccc(NC(=O)COc3ccc4c(=O)ccoc4c3)c2)cc1 ? < 5.00
